# assay.summary: log P by HPLC on reversed-phase column (C 18), EEC Directive 79/831 Annex V.A8
# Type: physicochemical
# stated.conditions: HPLC on reversed-phase column (C 18); 40° C.; 0.1% aqueous formic acid and acetonitrile; linear gradient 10% to 90% acetonitrile
Parameter: logP. Scope: all listed entries.
Number, no unit, nothing else.

Observe how each entry below is paired with its result.
Given the compound CCC(c1ccccc1)C1CCCCN1C(=O)c1c(C(F)F)nn(C)c1Cl (centres unmarked) , what is its reported logP?
3.87

Given the compound COc1cc(C2CCCCN2C(=O)c2cc(C)oc2C)cc(OC)c1OC (centres unmarked) , what is its reported logP?
3.04

Given the compound Cc1nc(C(F)F)c(C(=O)N2CCCCC2Cc2cccc3ccccc23)s1 (centres unmarked) , what is its reported logP?
3.76

Given the compound Cc1cc(C(=O)N2CCCCC2c2ccc(Br)s2)c(C)o1 (centres unmarked) , what is its reported logP?
4.29

Others:
Given the compound Cc1cc(C(=O)N2CCCCC2Cc2cccc(F)c2)c(C)o1 (centres unmarked) , what is its reported logP?
3.59

Given the compound Cn1nc(C(F)F)c(C(=O)N2CCCCC2c2ccccc2Br)c1Cl (centres unmarked) , what is its reported logP?
3.55

Given the compound Cn1nc(C(F)F)c(C(=O)N2CCCCC2c2cccc(Cl)c2)c1Cl (centres unmarked) , what is its reported logP?
3.60

Given the compound Cn1nc(C(F)F)c(C(=O)N2CCCCC2CCOc2ccc(Cl)cc2Cl)c1Cl (centres unmarked) , what is its reported logP?
4.26

====

# Tested on: Blumeria graminis f. sp. hordei
# assay.summary: In vivo preventive test on Blumeria graminis (barley)
# stated.conditions: 500 ppm of active ingredient, evaluated 7 days after inoculation
measurement.kind: Efficacy
Answers without a unit are incomplete; give the number and then its unit.

Observe how each entry below is paired with its result.
Given the compound CCC(c1ccccc1Cl)C1CCCCN1C(=O)c1c(C(F)F)nn(C)c1F (stereo not shown) , what is its reported Efficacy?
94%

Given the compound CCc1nn(C)c(F)c1C(=O)N1CCCCC1c1ccccc1C (stereo not shown) , what is its reported Efficacy?
78%

Others:
Given the compound Cc1cc(C(=O)N2CCCCC2c2ccc(Cl)cc2)c(C)o1 (stereo not shown) , what is its reported Efficacy?
70%

Given the compound Cc1ccccc1C1CCCCN1C(=O)c1c(C)nn(C)c1F (stereo not shown) , what is its reported Efficacy?
89%

====

Parameter: logP. Scope: all listed entries.
# assay.summary: log P by HPLC on reversed-phase column (C 18), EEC Directive 79/831 Annex V.A8
# Assay type: physicochemical
# stated.conditions: HPLC on reversed-phase column (C 18); 40° C.; 0.1% aqueous formic acid and acetonitrile; linear gradient 10% to 90% acetonitrile
Number, no unit, nothing else.

Observe how each entry below is paired with its result.
Given the molecule Cc1cc(C(=O)N2CCCCC2c2cccc(Cl)c2)c(C)o1 (stereo not shown) , what is its reported logP?
4.04

Given the molecule Cc1cc(C(=O)N2CCCCC2c2ccccc2Br)c(C)o1 (stereo not shown) , what is its reported logP?
3.96

Given the molecule Cn1nc(C(F)F)c(C(=S)N2CCCCC2CCc2ccccc2)c1F (stereo not shown) , what is its reported logP?
4.06

# context switch: different molecule, same logP
Given the molecule CCc1noc(C)c1C(=O)N1CCCCC1c1ccc(Cl)cc1Cl (stereo not shown) , what is its reported logP?
3.89
